- Experimental system: Cytochrome P450 2C9 (Homo sapiens) (UniProt P11712)
- Sequence (P11712 whole entry, looked up): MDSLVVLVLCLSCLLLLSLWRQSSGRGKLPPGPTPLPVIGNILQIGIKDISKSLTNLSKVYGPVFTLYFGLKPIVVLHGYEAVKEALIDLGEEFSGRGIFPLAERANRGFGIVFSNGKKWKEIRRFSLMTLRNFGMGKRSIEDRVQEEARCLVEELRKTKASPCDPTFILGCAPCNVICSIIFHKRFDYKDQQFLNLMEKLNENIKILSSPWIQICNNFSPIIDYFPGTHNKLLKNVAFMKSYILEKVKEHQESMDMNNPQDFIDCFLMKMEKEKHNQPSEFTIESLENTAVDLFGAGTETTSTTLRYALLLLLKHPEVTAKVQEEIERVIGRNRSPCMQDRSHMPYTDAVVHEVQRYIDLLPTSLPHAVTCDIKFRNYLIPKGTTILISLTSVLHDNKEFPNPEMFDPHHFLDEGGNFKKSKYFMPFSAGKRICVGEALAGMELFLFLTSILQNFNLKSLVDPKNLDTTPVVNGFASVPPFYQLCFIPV
- Assay comment: Cytochrome P450 Family 2 Subfamily C Member 9 (CYP2C9) small molecule antagonists: luciferase reporter qHTS assay (AID 1671198); further: nearly all actives have a fitted effect of over 50% in size
- Particulars: P450-Glo CYP2C9 enzyme assay, luciferin luminescence; series mostly up to 115 µM
Inconclusive results are not listed. Calls of active or inactive are those of the source. The call rests on the fitted dose curve; in most records, active means well fitted inhibition curve with a large enough effect in the repeat runs; inconclusive means weak or mixed curves; inactive means no such curve, though single readings can be large or run the other way.
Classes used: true (active), false (inactive)

INSERT INTO results (compound, experimental_system, answer_label) VALUES
  ('CCOc1cc(NC(C)=O)ccc1C(=O)OC', 'Cytochrome P450 2C9 (Homo sapiens) (UniProt P11712)', 'false'),
  ('CCOC(=O)c1ccc(OC(=O)CCCCCN=C(N)N)cc1', 'Cytochrome P450 2C9 (Homo sapiens) (UniProt P11712)', 'false'),
  ('C=C(C)C(=O)OCCNC(C)(C)C', 'Cytochrome P450 2C9 (Homo sapiens) (UniProt P11712)', 'false'),
  ('Cc1ccc2c(c1)OCC(=O)CO2', 'Cytochrome P450 2C9 (Homo sapiens) (UniProt P11712)', 'false'),
  ('C=Cc1ccccn1', 'Cytochrome P450 2C9 (Homo sapiens) (UniProt P11712)', 'false'),
  ('CCCCCCN', 'Cytochrome P450 2C9 (Homo sapiens) (UniProt P11712)', 'false'),
  ('N[C@@H](CCC(=O)Nc1ccc([N+](=O)[O-])cc1)C(=O)O', 'Cytochrome P450 2C9 (Homo sapiens) (UniProt P11712)', 'false'),
  ('C#CC(C)N(C)C(=O)Nc1ccc(Cl)cc1 (centres undefined)', 'Cytochrome P450 2C9 (Homo sapiens) (UniProt P11712)', 'true'),
  ('CCCC/C=C\CCCCCCCCCC=O', 'Cytochrome P450 2C9 (Homo sapiens) (UniProt P11712)', 'false'),
  ('CC(=O)c1sc(C)nc1C', 'Cytochrome P450 2C9 (Homo sapiens) (UniProt P11712)', 'false'),
  ('CC(C)c1ccc2cc(C(C)C)ccc2c1', 'Cytochrome P450 2C9 (Homo sapiens) (UniProt P11712)', 'false'),
  ('COP(=O)(OC)OC(c1ccc(Cl)cc1)P(=O)(OC)OC (centres undefined)', 'Cytochrome P450 2C9 (Homo sapiens) (UniProt P11712)', 'false'),
  ('OCCCCC(O)CO (centres undefined)', 'Cytochrome P450 2C9 (Homo sapiens) (UniProt P11712)', 'true'),
  ('Cc1[nH]cnc1-c1ccc(Cl)cc1', 'Cytochrome P450 2C9 (Homo sapiens) (UniProt P11712)', 'true'),
  ('CCCCCCCCCCl', 'Cytochrome P450 2C9 (Homo sapiens) (UniProt P11712)', 'false'),
  ('CCCCCCOC(=O)CC', 'Cytochrome P450 2C9 (Homo sapiens) (UniProt P11712)', 'false'),
  ('CCCCCOC(=O)CCC', 'Cytochrome P450 2C9 (Homo sapiens) (UniProt P11712)', 'false'),
  ('O=C(OCc1ccccc1)C(=O)OCc1ccccc1', 'Cytochrome P450 2C9 (Homo sapiens) (UniProt P11712)', 'false'),
  ('C[Si](C)(C)C', 'Cytochrome P450 2C9 (Homo sapiens) (UniProt P11712)', 'false'),
  ('C=C(C)C(=O)OCCN(CC)CC', 'Cytochrome P450 2C9 (Homo sapiens) (UniProt P11712)', 'false'),
  ('CCCOC(=O)C(C)O (centres undefined)', 'Cytochrome P450 2C9 (Homo sapiens) (UniProt P11712)', 'false'),
  ('NNc1nnc(NN)c2ccccc12', 'Cytochrome P450 2C9 (Homo sapiens) (UniProt P11712)', 'true'),
  ('CCc1ccc(C=O)cc1', 'Cytochrome P450 2C9 (Homo sapiens) (UniProt P11712)', 'false'),
  ('CC(S)C(=O)NCC(=O)O (centres undefined)', 'Cytochrome P450 2C9 (Homo sapiens) (UniProt P11712)', 'false'),
  ('C=CCCCCCCCCCCCC', 'Cytochrome P450 2C9 (Homo sapiens) (UniProt P11712)', 'false'),
  ('COC(=O)c1ccccc1C(=O)c1ccc(OCCN2CCCCC2)cc1', 'Cytochrome P450 2C9 (Homo sapiens) (UniProt P11712)', 'false'),
  ('C=COCCOCCOCCOC=C', 'Cytochrome P450 2C9 (Homo sapiens) (UniProt P11712)', 'false'),
  ('CC(COC(C)(C)C)OCCCO (centres undefined)', 'Cytochrome P450 2C9 (Homo sapiens) (UniProt P11712)', 'false'),
  ('COc1ccc(OC)c(Cl)c1', 'Cytochrome P450 2C9 (Homo sapiens) (UniProt P11712)', 'false'),
  ('O=C(O)c1cc(Cl)cc([N+](=O)[O-])c1Cl', 'Cytochrome P450 2C9 (Homo sapiens) (UniProt P11712)', 'true'),
  ('CC(=O)N[C@@H](CCC(=O)O)C(=O)O', 'Cytochrome P450 2C9 (Homo sapiens) (UniProt P11712)', 'false'),
  ('Nc1ccc2cc(S(=O)(=O)O)cc(O)c2c1', 'Cytochrome P450 2C9 (Homo sapiens) (UniProt P11712)', 'true'),
  ('c1ccc2nccnc2c1', 'Cytochrome P450 2C9 (Homo sapiens) (UniProt P11712)', 'false'),
  ('CN=C(NC#N)Nc1ccc(C2=NNC(=O)CC2C)cc1 (centres undefined)', 'Cytochrome P450 2C9 (Homo sapiens) (UniProt P11712)', 'false'),
  ('COC(=O)CCc1ccc(OCC(O)CNC(C)C)cc1 (centres undefined)', 'Cytochrome P450 2C9 (Homo sapiens) (UniProt P11712)', 'false'),
  ('COc1ccc(S(=O)(=O)N2c3ccc(Cl)cc3[C@@](O)(c3ccccc3Cl)[C@H]2C(=O)N2CCC[C@@H]2C(N)=O)cc1OC', 'Cytochrome P450 2C9 (Homo sapiens) (UniProt P11712)', 'true'),
  ('BrCc1cccc(Oc2ccccc2)c1', 'Cytochrome P450 2C9 (Homo sapiens) (UniProt P11712)', 'true'),
  ('COc1cc(C(=S)N2CCOCC2)cc(OC)c1OC', 'Cytochrome P450 2C9 (Homo sapiens) (UniProt P11712)', 'false'),
  ('CC(=O)Nc1ccc(S(=O)(=O)Nc2ccc([N+](=O)[O-])cc2)cc1', 'Cytochrome P450 2C9 (Homo sapiens) (UniProt P11712)', 'true'),
  ('CCCCOCCOC(=O)COc1nc(Cl)c(Cl)cc1Cl', 'Cytochrome P450 2C9 (Homo sapiens) (UniProt P11712)', 'false'),
  ('O=C(Nc1ccc(Cl)c(Cl)c1)C1CC1', 'Cytochrome P450 2C9 (Homo sapiens) (UniProt P11712)', 'true'),
  ('CCN1CCc2nc(N)oc2CC1', 'Cytochrome P450 2C9 (Homo sapiens) (UniProt P11712)', 'false'),
  ('CCCCCCOc1ccccc1C(N)=O', 'Cytochrome P450 2C9 (Homo sapiens) (UniProt P11712)', 'true'),
  ('O=C(OCC(O)CO)c1ccccc1Nc1ccnc2c(C(F)(F)F)cccc12 (centres undefined)', 'Cytochrome P450 2C9 (Homo sapiens) (UniProt P11712)', 'true'),
  ('O=C1c2ccccc2C(=O)C1c1ccccc1', 'Cytochrome P450 2C9 (Homo sapiens) (UniProt P11712)', 'false'),
  ('O=C(O)c1cc(Br)c(O)c(Br)c1', 'Cytochrome P450 2C9 (Homo sapiens) (UniProt P11712)', 'true'),
  ('Nc1nnc(-c2cccc(Cl)c2Cl)c(N)n1', 'Cytochrome P450 2C9 (Homo sapiens) (UniProt P11712)', 'false'),
  ('O=C(O)c1ccc(Cl)cc1Cl', 'Cytochrome P450 2C9 (Homo sapiens) (UniProt P11712)', 'false'),
  ('COc1ccc2c(c1)C(=O)N(CCc1ccc(S(=O)(=O)NC(=O)NC3CCCCC3)cc1)C(=O)C2(C)C', 'Cytochrome P450 2C9 (Homo sapiens) (UniProt P11712)', 'true'),
  ('CC(C)CCCC(C)(C)O', 'Cytochrome P450 2C9 (Homo sapiens) (UniProt P11712)', 'false'),
  ('CC(=O)NCc1c(I)c(NC(C)=O)c(I)c(C(=O)O)c1I', 'Cytochrome P450 2C9 (Homo sapiens) (UniProt P11712)', 'false'),
  ('CC/C=C\CC1=C(C)CCC1=O', 'Cytochrome P450 2C9 (Homo sapiens) (UniProt P11712)', 'false'),
  ('O=C1CC(c2ccc(Cl)cc2)CC(=O)N1', 'Cytochrome P450 2C9 (Homo sapiens) (UniProt P11712)', 'false'),
  ('C=C1CC/C=C(\C)CC[C@@H]2[C@@H]1CC2(C)C', 'Cytochrome P450 2C9 (Homo sapiens) (UniProt P11712)', 'false'),
  ('CC(C)NCC(O)COc1ccc(COCCOC(C)C)cc1 (centres undefined)', 'Cytochrome P450 2C9 (Homo sapiens) (UniProt P11712)', 'false'),
  ('C=CC(OCC)OCC', 'Cytochrome P450 2C9 (Homo sapiens) (UniProt P11712)', 'false'),
  ('CCCCNC1CC(C)(C)NC(C)(C)C1', 'Cytochrome P450 2C9 (Homo sapiens) (UniProt P11712)', 'false'),
  ('CC(=O)Nc1ccc(S(=O)(=O)Cl)cc1', 'Cytochrome P450 2C9 (Homo sapiens) (UniProt P11712)', 'false'),
  ('Cc1cccc(C)c1NC(=O)c1ccccc1C(=O)O', 'Cytochrome P450 2C9 (Homo sapiens) (UniProt P11712)', 'false');
